For each record, write down the corresponding kon.
- assay-target: T1, human AGR2 WT (human, UniProt O95994 21-175)
- T1 construct: also called hAGR2; recombinant human AGR2
- T1 sequence: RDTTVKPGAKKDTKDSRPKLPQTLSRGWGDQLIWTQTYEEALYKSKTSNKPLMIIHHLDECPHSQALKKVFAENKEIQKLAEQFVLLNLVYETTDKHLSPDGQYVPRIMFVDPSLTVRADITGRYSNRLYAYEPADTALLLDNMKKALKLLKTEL
- measurement-protocol: kinetics, antibody immobilized, hAGR2 soluble analyte; instrument not stated

Report kon, nothing else, for this binder: TH-101 IgG1-LALA humanized monoclonal antibody (antibody, V domains shown) VH: QVQLVQSGAEVKKPGASVKVSCKTSGYVFSRSWMNWVRQAPGQGLEWIGWIYPGDGDTNYNGKFKDRVTLTADKSTSTVYMELSSLRSEDTAVYFCARGGYDGSPWLSYWGQGTLVTVSS VL: DIQMTQSPSSLSASVGDRVTITCKASQDINSYLSWFQQKPGKAPKTLIYRANRLVDGVPSRFSGSGSGQDFTLTISSLQPEDIATYYCLQYDEFPFTFGGGTKVEIKR
303000 M⁻¹ s⁻¹

Report kon, nothing else, for this binder: TH-109 IgG1-LALA humanized monoclonal antibody (antibody, V domains shown) VH: QVQLVQSGSELKKPGASVKVSCKTSGYVFSRSWMNWVRQAPGQGLEWIGWIYPGDGDTNYNGKFKDRFVLSADKSVSTVYLQISSLKAEDTAVYFCARGGYDGSPWLSYWGQGTLVTVSS VL: EIVLTQSPATLSLSPGERATLSCKASQDINSYLSWFQQKPGQAPRTLIYRANRLVDGIPARFSGSGSGQDFTLTISSLEPEDFAVYYCLQYDEFPFTFGGGTKVEIKR
329000 M⁻¹ s⁻¹

Report kon, nothing else, for this binder: TH-115 IgG1-LALA humanized monoclonal antibody (antibody, V domains shown) VH: QVQLLESGGGLVKPGGSLRLSCATSGYVFSRSWMNWIRQAPGQGLEWIGWIYPGDGDTNYNGKVKDRFTLSADKAKNSVYLQMNSLRAEDTAVYFCARGGYDGSPWLSYWGQGTLVTVSS VL: EIVLTQSPDFQSVTPKEKVTITCKASQDINSYLSWFQQKPDQSPKTLIYRANRLVDGVPSRFSGSGSGQDFTLTINSLEAEDAATYYCLQYDEFPFTFGGGTKVEIKR
308000 M⁻¹ s⁻¹

Report kon, nothing else, for this binder: TH-104 IgG1-LALA humanized monoclonal antibody (antibody, V domains shown) VH: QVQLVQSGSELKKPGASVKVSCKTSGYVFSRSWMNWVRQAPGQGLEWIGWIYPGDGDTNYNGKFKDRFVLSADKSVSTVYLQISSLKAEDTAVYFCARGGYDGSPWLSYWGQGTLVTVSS VL: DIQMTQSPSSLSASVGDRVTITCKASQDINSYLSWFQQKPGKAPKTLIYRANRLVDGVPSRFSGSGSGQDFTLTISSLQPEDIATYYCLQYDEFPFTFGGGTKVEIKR
296000 M⁻¹ s⁻¹
